Values were extracted from the Kinase Knowledgebase extract (Sharma et al. 2016).

target-under-test: EGFR (human)
applied-conditions: a431
experimental-readout: IC50 (µg/mL)
Your answer should be a plain number; it is taken to be in µg/mL.

Form field IC50 for item "COc1cc2ncc(C#N)c(Oc3cccc(Br)c3)c2cc1OC" on EGFR (human): 100

IC50 on EGFR (human) for "CC#CC(=O)Nc1ccc2ncc(C#N)c(Nc3cccc(Br)c3)c2c1" is 38.1

Observed IC50, EGFR (human), "COC/C=C/C(=O)Nc1ccc2ncc(C#N)c(Nc3cccc(Br)c3)c2c1" : 0.8

====

target-under-test: EGFR (human)
applied-conditions: a549
Consider the following compounds; for each one, report its IC50.

For reference, reported IC50 for "COc1cc2ncc(C#N)c(Nc3cccc(C#N)c3)c2cc1OC" stands at 100 µg/mL

Lab note: "N#Cc1cnc2ccc([N+](=O)[O-])cc2c1Nc1cccc(Br)c1" gave IC50 of > 100 µg/mL

compound "COc1cc2ncc(C#N)c(Oc3cccc(Br)c3)c2cc1OC" , IC50 observed: > 100 µg/mL

Quick note, IC50 for "CC#CC(=O)Nc1ccc2ncc(C#N)c(Nc3cccc(Br)c3)c2c1" landed at > 100 µg/mL

====

target-under-test: EGFR (human) (UniProt P00533)
Sequence (P00533 whole entry, looked up): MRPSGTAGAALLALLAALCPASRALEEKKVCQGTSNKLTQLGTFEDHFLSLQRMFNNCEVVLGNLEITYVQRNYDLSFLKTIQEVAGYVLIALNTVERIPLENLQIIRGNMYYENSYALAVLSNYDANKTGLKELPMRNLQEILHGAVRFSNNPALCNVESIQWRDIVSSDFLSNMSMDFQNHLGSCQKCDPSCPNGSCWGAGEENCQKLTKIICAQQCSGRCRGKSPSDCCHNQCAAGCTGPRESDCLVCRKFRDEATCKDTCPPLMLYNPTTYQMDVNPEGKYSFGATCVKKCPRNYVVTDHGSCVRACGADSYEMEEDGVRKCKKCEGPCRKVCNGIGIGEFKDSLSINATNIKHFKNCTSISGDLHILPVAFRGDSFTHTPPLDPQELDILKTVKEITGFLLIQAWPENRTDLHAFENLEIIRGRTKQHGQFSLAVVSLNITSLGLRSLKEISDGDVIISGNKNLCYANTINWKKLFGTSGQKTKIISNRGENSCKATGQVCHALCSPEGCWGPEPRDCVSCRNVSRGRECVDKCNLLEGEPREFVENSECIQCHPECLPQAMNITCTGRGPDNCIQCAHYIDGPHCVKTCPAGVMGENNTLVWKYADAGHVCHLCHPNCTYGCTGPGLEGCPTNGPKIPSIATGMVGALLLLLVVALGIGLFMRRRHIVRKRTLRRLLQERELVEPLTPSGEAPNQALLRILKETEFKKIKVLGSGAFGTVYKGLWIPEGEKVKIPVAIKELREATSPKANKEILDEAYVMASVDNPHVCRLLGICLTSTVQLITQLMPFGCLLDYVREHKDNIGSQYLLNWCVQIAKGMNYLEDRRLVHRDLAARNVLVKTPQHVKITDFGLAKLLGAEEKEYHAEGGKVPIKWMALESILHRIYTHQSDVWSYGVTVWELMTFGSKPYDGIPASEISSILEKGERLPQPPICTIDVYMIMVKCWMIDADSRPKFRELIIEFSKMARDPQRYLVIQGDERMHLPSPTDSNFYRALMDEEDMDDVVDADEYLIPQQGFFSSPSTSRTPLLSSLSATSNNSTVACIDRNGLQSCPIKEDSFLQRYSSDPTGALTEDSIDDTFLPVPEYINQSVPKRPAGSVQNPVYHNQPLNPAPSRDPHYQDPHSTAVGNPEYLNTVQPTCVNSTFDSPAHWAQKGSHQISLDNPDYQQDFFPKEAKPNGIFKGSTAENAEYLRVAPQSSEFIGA
applied-conditions: nhek
experimental-readout: IC50

Briefly, IC50 measured for "CC#CC(=O)Nc1ccc2ncc(C#N)c(Nc3cccc(Br)c3)c2c1" : 9 µM

====

Can you tell me IC50 for the items I'm about to list?
Respond numerically; units are nM and should not be typed.

EGFR (UniProt P00533) assay, compound "COc1cc2ncc(C#N)c(Nc3cccc(SC)c3)c2cc1OC" , recorded IC50 = 10

Known value: EGFR (UniProt P00533) IC50 of the compound "COc1cc2ncc(C#N)c(Nc3cccc(Br)c3)c2cc1NC(=O)C#CCN(C)C" equals 0.008

The recorded IC50 with EGFR (UniProt P00533) for "COC/C=C/C(=O)Nc1ccc2ncc(C#N)c(Nc3cccc(Br)c3)c2c1" was 80

====

Can you tell me IC50 for the items I'm about to list?
target-under-test: EGFR (human) (UniProt P00533)
applied-conditions: lx1

The value of IC50 measured for the compound "N#Cc1cnc2ccc([N+](=O)[O-])cc2c1Nc1cccc(Br)c1" turned out to be > 100 µg/mL

The recorded IC50 for "COc1cc2ncc(C#N)c(Nc3cccc(C#N)c3)c2cc1OC" is 100 µg/mL

IC50 reading for "CC#CC(=O)Nc1ccc2ncc(C#N)c(Nc3cccc(Br)c3)c2c1" : > 100 µg/mL

compound "COc1cc2ncc(C#N)c(Oc3cccc(Br)c3)c2cc1OC" , IC50 observed: > 100 µg/mL

====

target-under-test: EGFR (UniProt P00533)
experimental-readout: IC50 (µM)
Dear colleague, please return just the value in µM, with no unit written.

For record "CC#CC(=O)Nc1ccc2ncc(C#N)c(Nc3cccc(Br)c3)c2c1" the listed IC50 is 9

====

target-under-test: EGFR (human) (UniProt P00533)
applied-conditions: pc-3
experimental-readout: IC50

The compound listed as "COc1cc2ncc(C#N)c(Oc3cccc(Br)c3)c2cc1OC" shows IC50 equal to > 100 µg/mL

Data point: "CC#CC(=O)Nc1ccc2ncc(C#N)c(Nc3cccc(Br)c3)c2c1" ; IC50 = > 100 µg/mL

In plain terms, "N#Cc1cnc2ccc([N+](=O)[O-])cc2c1Nc1cccc(Br)c1" has a documented IC50 of > 100 µg/mL

Lab book: IC50 of "COc1cc2ncc(C#N)c(Nc3ccc(F)cc3)c2cc1OC" noted as > 100 µg/mL
